Value source: PubChem BioAssay (NCI)

- System: BT-549 breast
- TEST NAME: NCI-60 one-dose screen, 48 h
- EXPERIMENTAL SETUP: 10 µM unless noted
- Protocol: Growth inhibition of the BT-549 human tumor cell line is measured as a screen for anti-cancer activity. Cells are grown in 96 well plates and exposed to the test compound for 48 hours. Compounds are tested at a single concentration, which is 10^-5 M for most compounds. The reported endpoint is percent growth (GI% or GIPRCNT), where numbers from 0 - 100% represent growth inhibition, and numbers from -100% - 0 represent cell death. For example, a value of 40 represents 60% growth inhibition. […]
About 83,000 compounds went through this panel and 20% of them were active in at least one assay; those are over-represented in the sample as a whole. Activity calls are given as the source filed them. How the source made its calls: active means growth percent below 10; inactive means the rest.
Outcomes: true (1) for active, false (0) for inactive

MOLECULE | CATEGORY
COC(=O)OC1C(O[C@H]2C[C@H]3[C@@H]4CC=C5C[C@@H](O)CC[C@]5(C)[C@H]4CC[C@]3(C)[C@H]2[C@H](C)C(=O)CCC(C)C)OCC(O)C1OC1OCC(O)C(O)C1OC(=O)c1ccc(OC)cc1 (stereo partly drawn) | true (1)
O=C(CSc1nnc(Cc2ccccc2Nc2c(Cl)cccc2Cl)n1-c1ccccc1)N1N=C(c2ccc3ccccc3c2)CC1c1ccc(Cl)cc1 (stereo not drawn) | false (0)
ClCc1c(Cl)c(Cl)c(Cl)c(CCl)c1Cl | false (0)
O=c1c2cc(Br)cc(Br)c2nc(-c2ccc(Cl)cc2)n1/N=C/c1cccc(F)c1 | false (0)
O=[N+]([O-])c1ccc(Sc2nc(Cl)nc(NC3CCCC3)n2)cc1 | true (1)
CCS(=O)(=O)Nc1cccc(Nc2c3cccc(C)c3nc3c(C)cccc23)c1OC | false (0)
COc1cc(NC(=O)CSc2nc3ccc(Cl)cc3c(=O)n2Cc2ccccc2)cc(OC)c1OC | false (0)
COc1cc2ncnc(Nc3ccc(S(=O)(=O)Nc4cc(C)on4)cc3)c2cc1OCCCN1CCN(c2ccc([N+](=O)[O-])cc2)CC1 | false (0)
O=C1NN(C(=O)c2ccccc2)C(c2ccc(Cl)c(Cl)c2)=C/C1=C\c1ccccc1[N+](=O)[O-] | true (1)
CCN1C(=O)N(CC)C2C1NN=c1s/c(=C\c3ccc(Br)cc3)c(=O)n12 (stereo not drawn) | false (0)
CC(C)(C)c1nn(-c2ccccc2)c2c1C(=O)CSC(c1ccccc1Cl)N2 (stereo not drawn) | false (0)
CNC(=O)OC1C(O[C@H]2C[C@H]3[C@@H]4CC=C5C[C@@H](O)CC[C@]5(C)[C@H]4CC[C@]3(C)[C@H]2[C@H](C)C(=O)CCC(C)C)OCC(O)C1OC1OCC(O)C(O)C1OC(=O)c1ccc(OC)cc1 (stereo partly drawn) | false (0)
N/N=C(\C(=N\N)c1ccccc1)c1ccccc1 | false (0)
CCN1C(=O)/C(=C/N2N=C(c3ccc(Cl)cc3)CC2c2ccc(OC)cc2)SC1=S (stereo not drawn) | false (0)
CC(=O)CC(c1ccc([N+](=O)[O-])cc1)c1c(O)c2ccccc2oc1=O (stereo not drawn) | false (0)
S=C(Nc1ccc(Cl)cc1)Nc1ccc(Cl)cc1 (tested in a mixture with another compound) | false (0)
O=C1OC(/C=C/c2ccccc2)=NC/1=C/c1ccccc1[N+](=O)[O-] | false (0)
ClCCn1cnc2c(SCc3ccccc3Cl)ncnc21 | false (0)
